target: human adenosine-A2A receptors (Homo sapiens, UniProt P29274); construct: expressed in transfected cells; host or cells: HEK-293 cells; assay: In vitro affinity for human adenosine-A2A receptors, [3H]CGS 21680 radioligand binding; settings: human recombinant receptors expressed in HEK-293 cells, read-out: Adenosine receptor affinity A2A pKi (converted)
Sequence (P29274 whole entry): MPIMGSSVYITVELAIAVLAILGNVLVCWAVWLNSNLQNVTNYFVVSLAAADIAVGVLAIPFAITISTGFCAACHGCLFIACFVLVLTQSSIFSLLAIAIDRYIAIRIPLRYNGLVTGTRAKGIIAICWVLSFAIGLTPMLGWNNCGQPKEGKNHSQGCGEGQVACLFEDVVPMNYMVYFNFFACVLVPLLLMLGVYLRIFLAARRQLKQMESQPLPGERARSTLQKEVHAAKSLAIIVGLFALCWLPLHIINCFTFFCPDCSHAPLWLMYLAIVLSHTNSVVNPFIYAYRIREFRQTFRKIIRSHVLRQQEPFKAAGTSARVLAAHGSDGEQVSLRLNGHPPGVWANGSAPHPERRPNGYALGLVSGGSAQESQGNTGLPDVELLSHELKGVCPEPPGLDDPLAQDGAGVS
attribute.measured: Ki (µM)
Respond numerically; units are µM and should not be typed.

# count of solved cases: 3
{"columns": ["compound", "attribute.measured", "reported.result"],
 "data": [
  ["Cn1cnc2c(N)cc(N3OC4C=CC3CC4)nc21 (stereo not shown) [Compound 1]", "Ki", 15.8],
  ["Cn1cnc2c(N)cc(NN=CCc3ccccc3)nc21 [Compound 3]", "Ki", 3.16],
  ["Cn1cnc2c(N)cc(NN=CC3CCCCC3)nc21 [Compound 8]", "Ki", 2]
]}

Kindly consider the entry below.
Quick one: give measured Ki for Cn1cnc2c(N)cc(NN=Cc3ccccc3)nc21 [Compound 4]
1.26

###

Molecular target: human adenosine-A1 receptors (Homo sapiens)
Construct: expressed in transfected cells; host or cells: CHO cells
Sequence (P30542 1-326): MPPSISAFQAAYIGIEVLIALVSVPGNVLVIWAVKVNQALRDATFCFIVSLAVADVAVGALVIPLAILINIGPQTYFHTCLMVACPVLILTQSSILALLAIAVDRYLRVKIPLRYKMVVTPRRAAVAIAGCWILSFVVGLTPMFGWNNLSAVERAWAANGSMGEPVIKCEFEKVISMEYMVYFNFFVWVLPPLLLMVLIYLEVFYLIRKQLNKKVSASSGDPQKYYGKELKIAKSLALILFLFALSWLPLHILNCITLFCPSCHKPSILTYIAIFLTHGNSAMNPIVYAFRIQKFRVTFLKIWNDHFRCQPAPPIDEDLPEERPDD
Assay: In vitro affinity for human adenosine-A1 receptors, [3H]DPCPX radioligand binding
Settings: human recombinant receptors expressed in CHO cells, read-out: Adenosine receptor affinity A1 pKi (converted)
# maps each entry to its Ki
Respond numerically; units are µM and should not be typed.

# count of solved cases: 3
{"columns": ["compound", "unit.abbrev", "Ki"],
 "data": [
  ["COc1ccc(C=NNc2cc(N)c3ncn(C)c3n2)c(OC)c1 [Compound 6]", "µM", 6.31],
  ["Cn1cnc2c(N)cc(NN=CCc3ccccc3)nc21 [Compound 3]", "µM", 2.51],
  ["Cn1cnc2c(N)cc(NN=CC3CCCCC3)nc21 [Compound 8]", "µM", 3.16]
]}

Quick one: give measured Ki for Cn1cnc2c(N)cc(NN=Cc3ccccc3)nc21 [Compound 4]
3.98

###

molecular target: human adenosine-A2A receptors (Homo sapiens); construct: expressed in transfected cells; host or cells: HEK-293 cells; test: In vitro affinity for human adenosine-A2A receptors, [3H]CGS 21680 radioligand binding; conditions: human recombinant receptors expressed in HEK-293 cells, read-out: Adenosine receptor affinity A2A pKi (converted)
attribute.measured: Ki (nM)
Respond numerically; units are nM and should not be typed.

{"columns": ["line.notation", "Ki [nM]"],
 "data": [
  ["Cn1cnc2c(N)cc(N[C@H]3CC[C@@H](O)CC3)nc21", 7940],
  ["COc1ccc(C=NNc2cc(N)c3ncn(C)c3n2)c(OC)c1", 2000]
]}

Quick one: give measured Ki for COc1ccc(C=NNc2cc(N)c3ncn(C)c3n2)cc1
1000
